System: SK-MEL-28
Test: NCI tumour cell line growth inhibition, 48 h
Active and inactive are the calls of the source. Rule as the data show it: active = GI50 up to about 1.1 µM and inactive = higher.
QUANTITY KIND: GI50

{"MOLECULE": "Cc1cccc(C)c1N1C(=O)C(=O)C(c2nc3ccccc3s2)/C(=N/NC(=O)c2ccccc2O)C1=O (stereo not drawn)", "QUANTITY KIND": "GI50", "RECORDED MEASUREMENT": "28 µM (inactive)"}
{"MOLECULE": "Nc1nc(N)c2cc(S(=O)(=O)c3ccc4ccccc4c3)ccc2n1", "QUANTITY KIND": "GI50", "RECORDED MEASUREMENT": "> 100 µM (inactive)"}
{"MOLECULE": "COc1ccc2c(c1)CCCC1C3=NCCC3(C)CSC21 (stereo not drawn)", "QUANTITY KIND": "GI50", "RECORDED MEASUREMENT": "36.2 µM (inactive)"}

====

System: NCI-H226
Experiment: NCI tumour cell line growth inhibition, 48 h
Calls of active or inactive are those of the source. Rule as the data show it: active = GI50 up to about 1.1 µM and inactive = higher.
Labels: 1 (active), 0 (inactive)

{"MOLECULE": "Cn1c(SCc2ccc(F)cc2)nnc1C12CC3CC(CC(C3)C1)C2", "GROUP": 0}
{"MOLECULE": "CC(C)(C)OC(=O)N1NC(c2ccccc2)CC1c1ccccc1 (stereo not given)", "GROUP": 0}
{"MOLECULE": "CC(C)(C)OC/C=C(/CO)[C@@H]1C=C[C@H](O)C1", "GROUP": 0}
{"MOLECULE": "CC(C)(C)c1cc2c(O)c(c1)Cc1cc(C(C)(C)C)cc(c1O)Cc1cc(C(C)(C)C)cc(c1O)Cc1cc(C(C)(C)C)cc(c1O)Cc1cc(C(C)(C)C)cc(c1O)Cc1cc(C(C)(C)C)cc(c1O)Cc1cc(C(C)(C)C)cc(c1O)Cc1cc(C(C)(C)C)cc(c1O)C2", "GROUP": 0}
{"MOLECULE": "O=C1Cc2c([nH]c3ccc(Br)cc23)-c2cc(Br)ccc2N1", "GROUP": 0}
{"MOLECULE": "CC(C)(C)OC(=O)NCCCCC(NC(=O)OCc1ccccc1)C(N)=O (stereo not given)", "GROUP": 0}
{"MOLECULE": "C=C[C@@]1(O)CCCC[C@@H]1CC(Sc1ccccc1)Sc1ccccc1", "GROUP": 0}
{"MOLECULE": "COc1cc(C(=O)c2cocc2C(=O)c2ccc3c(c2)OCO3)cc(OC)c1OC", "GROUP": 0}
{"MOLECULE": "COC/C=C\\[C@@]1(O)CCCC[C@@H]1CC(OC)OC", "GROUP": 0}
{"MOLECULE": "COc1ccc(C2(O)C(S(=O)(=O)c3ccc(C)cc3)=Cc3ccc(OC)cc32)cc1 (stereo not given)", "GROUP": 0}
{"MOLECULE": "CC1OC(OC2C(O[C@H]3CC[C@@]4(C)[C@@H](CC[C@@H]5[C@@H]4CC[C@]4(C)[C@@H]6[C@H](C[C@@H]54)O[C@]4(CC[C@@H](C)CO4)[C@H]6C)C3)OC(CO)C(OC3OC(CO)C(O)C(OC4OCC(O)C(O)C4O)C3OC3OCC(O)C(O)C3O)C2O)C(O)C(O)C1O (stereo not given in full)", "GROUP": 0}
{"MOLECULE": "O=c1[nH]c(=O)n(C2CC(O)C(CO)O2)cc1C#Cc1c(F)c(F)c(F)c(F)c1F (stereo not given)", "GROUP": 0}
{"MOLECULE": "COc1ccc(N2C(=O)/C(=C(\\C)c3cc4ccccc4oc3=O)N=C2c2cc([N+](=O)[O-])ccc2Cl)cc1", "GROUP": 0}
{"MOLECULE": "Clc1ccc(-c2noc(CN3CCCCC3)n2)cc1", "GROUP": 0}
{"MOLECULE": "COC(=O)CCC1(C)C2CCC1/C(=N/O)C2 (stereo not given)", "GROUP": 0}
{"MOLECULE": "CC1=NCCc2cc3[nH]c4ccccc4c3cc21", "GROUP": 0}
{"MOLECULE": "CC(=O)Nc1ccc(SC#N)c2c(NC(C)=O)cccc12", "GROUP": 0}
{"MOLECULE": "O=C(Nc1sccc1S(=O)(=O)c1ccc(Cl)cc1)C(F)(F)F", "GROUP": 0}
{"MOLECULE": "Clc1cccc(N2CCN(CCCN3CCc4c([nH]c5ccccc45)C3c3cccnc3)CC2)c1 (stereo not given)", "GROUP": 0}
{"MOLECULE": "O=[N+]([O-])C(/C(Cl)=C(\\Cl)Br)=C(/Cl)SCc1ccccc1", "GROUP": 0}
{"MOLECULE": "O=C1C=C(c2c(O)ccc3ccccc23)c2ccccc2C1=O", "GROUP": 0}
{"MOLECULE": "COC(=O)C1C(=O)CC(C)(O)C(C(=O)OC)C1c1ccc(N(C)C)cc1 (stereo not given)", "GROUP": 0}
{"MOLECULE": "COc1c2c(cc3c1C1(O)Cc4ccc5c(c4C[N+]1(C)CC3)OCO5)OCO2 (stereo not given)", "GROUP": 0}
{"MOLECULE": "Cc1ccc(S(=O)(=O)N2CCN(CCN(C)CCN3CCN(S(=O)(=O)c4ccc(C)cc4)CC3)CC2)cc1", "GROUP": 0}
{"MOLECULE": "COc1cc([C@@H]2c3cc4c(c(O)c3C[C@H]3COC(=O)[C@@H]32)OCO4)cc(OC)c1O", "GROUP": 1}
{"MOLECULE": "C[C@H]1O[C@@H](O[C@H]2[C@@H](O)C[C@H](O[C@H]3[C@@H](O)C[C@H](O[C@H]4CC[C@@]5(C)[C@H](CC[C@@H]6[C@@H]5CC[C@]5(C)[C@@H](C7=CC(=O)OC7)CC[C@]65O)C4)O[C@@H]3C)O[C@@H]2C)C[C@H](O)[C@@H]1O", "GROUP": 1}
{"MOLECULE": "COc1cc(/C=C(\\C#N)C(N)=C(C#N)C#N)cc(O)c1O", "GROUP": 0}
{"MOLECULE": "C/C=C1\\C[C@@H]2C(OC)Nc3cc(O)c(OC)cc3C(=O)N2C1 (stereo not given in full)", "GROUP": 1}
{"MOLECULE": "O=C1C[S+]([O-])c2ccccc2N1 (stereo not given)", "GROUP": 0}
{"MOLECULE": "Cc1c(O)c(C)c2c(C)cn(C(=O)C(C)(C)C)c2c1C", "GROUP": 0}

====

System: SR
Test: NCI tumour cell line growth inhibition, 48 h
Calls of active or inactive are those of the source. Rule as the data show it: active = GI50 up to about 1.1 µM and inactive = higher.

{"COMPOUND": "COc1ccc2cc1Oc1ccc(cc1)CC1c3cc(OC)c(cc3CCN1C)Oc1c(OC)c(OC)cc3c1C(C2)N(C)CC3 (stereo not drawn)", "GI50": "1.17 µM (inactive)"}
{"COMPOUND": "O/N=C1\\C(=C\\c2ccc3c(c2)OCCO3)CCCC1C(NO)c1ccc2c(c1)OCCO2 (stereo not drawn)", "GI50": "14.3 µM (inactive)"}
{"COMPOUND": "COC(=O)C1=C(C(=O)OC)C(OO)(c2ccccc2)OC1=O (stereo not drawn)", "GI50": "38.5 µM (inactive)"}
{"COMPOUND": "Nc1nc(Cl)cc(NCCC2(CO)CCC2)n1", "GI50": "> 100 µM (inactive)"}
{"COMPOUND": "CN(N=O)C(=O)NC(CCCCNC(=O)OCc1ccccc1)C(=O)OCc1ccccc1 (stereo not drawn)", "GI50": "14.9 µM (inactive)"}
{"COMPOUND": "Clc1ccc(-c2noc(CN3CCCCC3)n2)cc1", "GI50": "63.1 µM (inactive)"}
{"COMPOUND": "NCCCN(CCCN)CCN(CCN(CCCN)CCCN)CCN(CCCN)CCCN", "GI50": "> 100 µM (inactive)"}
{"COMPOUND": "CCOC(=O)C1(Br)S(=O)(=O)OCCOS1(=O)=O", "GI50": "> 100 µM (inactive)"}
{"COMPOUND": "O=C(C/N=C(\\CN(c1ccccc1)c1ccccc1)Oc1c([N+](=O)[O-])cc([N+](=O)[O-])cc1[N+](=O)[O-])N1CCNCC1", "GI50": "> 100 µM (inactive)"}
{"COMPOUND": "CCOC(=O)C1=C(C)N(NC(=O)Nc2ccccc2)C(=O)C1=P(c1ccccc1)(c1ccccc1)c1ccccc1", "GI50": "16.9 µM (inactive)"}
{"COMPOUND": "O=C1CSC(c2ccc(Cl)cc2)N1c1ccc(-c2ccc(-n3c(-c4ccccc4)nc4ccccc4c3=O)cc2)cc1 (stereo not drawn)", "GI50": "28.2 µM (inactive)"}
{"COMPOUND": "CC1=Nc2c(O)nc(S)nc2NC(c2ccc(Cl)c(Cl)c2)C1 (stereo not drawn)", "GI50": "> 100 µM (inactive)"}
{"COMPOUND": "CC(C)(O)CCC(O)C(C)(O)C1CCC2(O)C3=CC(=O)C4(O)CC(O)C(O)CC4(C)C3CCC12C.CC(C)(O)CCC(O)C(C)(O)C1CCC2(O)C3=CC(=O)C4CC(O)C(O)CC4(C)C3CCC12C (stereo not drawn)", "GI50": "> 100 µM (inactive)"}
